# target-of-assay: CFTR (Homo sapiens, UniProt P13569)
# Construct: results in the phosphorylation and opening of CFTR anion channels
# Sequence (P13569 whole entry): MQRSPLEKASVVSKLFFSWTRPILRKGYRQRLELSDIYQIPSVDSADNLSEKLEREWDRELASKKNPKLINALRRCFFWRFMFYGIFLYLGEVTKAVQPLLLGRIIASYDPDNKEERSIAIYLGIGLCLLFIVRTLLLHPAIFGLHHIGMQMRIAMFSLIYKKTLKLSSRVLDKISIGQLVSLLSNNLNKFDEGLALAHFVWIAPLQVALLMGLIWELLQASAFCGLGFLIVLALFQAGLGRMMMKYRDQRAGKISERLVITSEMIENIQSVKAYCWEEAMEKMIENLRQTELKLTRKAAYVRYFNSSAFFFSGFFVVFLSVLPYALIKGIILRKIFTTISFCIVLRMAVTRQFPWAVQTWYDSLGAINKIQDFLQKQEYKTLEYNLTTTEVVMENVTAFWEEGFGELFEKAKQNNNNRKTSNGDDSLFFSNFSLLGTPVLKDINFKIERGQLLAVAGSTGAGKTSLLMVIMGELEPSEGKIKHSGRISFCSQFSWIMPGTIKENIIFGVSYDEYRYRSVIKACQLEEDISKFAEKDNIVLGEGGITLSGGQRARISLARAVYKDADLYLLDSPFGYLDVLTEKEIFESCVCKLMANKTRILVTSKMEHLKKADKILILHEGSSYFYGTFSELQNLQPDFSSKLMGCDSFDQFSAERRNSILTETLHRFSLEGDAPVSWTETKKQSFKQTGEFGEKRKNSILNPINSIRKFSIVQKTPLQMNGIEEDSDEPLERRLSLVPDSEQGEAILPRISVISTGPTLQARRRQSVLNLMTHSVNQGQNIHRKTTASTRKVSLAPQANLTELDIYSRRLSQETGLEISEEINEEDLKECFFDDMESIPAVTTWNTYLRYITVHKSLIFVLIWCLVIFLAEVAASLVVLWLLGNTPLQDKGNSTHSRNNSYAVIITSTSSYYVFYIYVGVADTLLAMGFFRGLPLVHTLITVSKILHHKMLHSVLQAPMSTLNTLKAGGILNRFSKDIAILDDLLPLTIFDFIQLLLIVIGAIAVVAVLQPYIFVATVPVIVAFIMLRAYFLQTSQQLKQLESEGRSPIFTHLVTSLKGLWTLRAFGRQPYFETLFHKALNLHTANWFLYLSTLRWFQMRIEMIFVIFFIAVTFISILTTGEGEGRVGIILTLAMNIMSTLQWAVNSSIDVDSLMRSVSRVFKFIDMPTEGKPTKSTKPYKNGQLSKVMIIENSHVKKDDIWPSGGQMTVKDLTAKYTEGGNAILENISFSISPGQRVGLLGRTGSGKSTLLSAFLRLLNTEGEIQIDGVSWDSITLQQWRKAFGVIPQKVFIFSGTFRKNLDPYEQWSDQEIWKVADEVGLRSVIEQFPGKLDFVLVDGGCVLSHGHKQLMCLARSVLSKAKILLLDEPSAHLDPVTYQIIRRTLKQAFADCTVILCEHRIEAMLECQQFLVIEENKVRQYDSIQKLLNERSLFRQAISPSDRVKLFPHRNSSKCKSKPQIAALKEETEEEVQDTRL
# protocol-summary: T84 assay (FLIPR membrane potential dye, forskolin/IBMX-stimulated CFTR channel activity)
# condition-description: human colonic T84 cells, average of at least 2 runs unless annotated n = 1
recorded-endpoint: IC50 (µM)

Check out these entries, answers already filled in.
O=C(NCc1cc(Cl)cc(Cl)c1)c1n[nH]c(-c2cc(Cl)c(O)c(Cl)c2)n1 :: 6.8
CN(Cc1ccc(Cl)cc1)C(=O)c1n[nH]c(-c2cc(Cl)c(O)c(Cl)c2)n1 :: 25

[P] O=C(NCc1ccc(Oc2ccccc2)cc1)c1n[nH]c(-c2cc(Cl)c(O)c(Cl)c2)n1
[Q] O=C(NCc1cc(F)c(F)c(F)c1)c1n[nH]c(-c2cc(Cl)c(O)c(Cl)c2)n1
Select the item with the higher value of IC50 from the options P and Q listed. Selection: enter the item's label. Q

Values were extracted from patent US20090264471A1.
